System: DENV-4 strain H241
Test: Tetravalent RT-qPCR assay, serotype 4
Format: cell-based, Dengue virus
Details: RT-qPCR serotype 4 H241
Consider the cut-off 10. If the recorded SI is strictly smaller, the label is Criterion met; if not, the label is Criterion not met.

- compound: "COc1cc(NC(C(=O)c2c[nH]c3cc(OC)c(Cl)cc23)c2ccc(F)cc2OC)cc(OCCO)c1 (single isomer, unassigned)"
  answer label: "Criterion met"
- compound: "COc1cc(NC(C(=O)c2c[nH]c3cc(F)c(C)cc23)c2ccc(F)cc2OC)cc(OCCO)c1 (single isomer, unassigned)"
  answer label: "Criterion not met"
- compound: "[2H]C(Nc1cc(OC)cc(OCCO)c1)(C(=O)c1c[nH]c2cc(F)ccc12)c1ccc(Cl)cc1OC (single isomer, unassigned) [Compound 13A-D]"
  answer label: "Criterion not met"
- compound: "COc1cc(NC(C(=O)c2c[nH]c3c4c(ccc23)OCC4)c2ccc(F)cc2OC)cc(OCCO)c1 (single isomer, unassigned)"
  answer label: "Criterion not met"
- compound: "COc1cc(NC(C(=O)c2c[nH]c3c(C)cc(Cl)cc23)c2ccc(F)cc2OC)cc(OCCO)c1 (single isomer, unassigned)"
  answer label: "Criterion met"
- compound: "COc1cc(NC(C(=O)c2c[nH]c3ccc(S(F)(F)(F)(F)F)cc23)c2ccc(Cl)cc2OC)cc(OCCO)c1 (single isomer, unassigned) [Compound 15A]"
  answer label: "Criterion not met"
- compound: "COc1cc(NC(C(=O)c2c[nH]c3cc(OC)c(C)c(F)c23)c2ccc(Cl)cc2OC)cc(OCCO)c1 (single isomer, unassigned) [Compound 12B]"
  answer label: "Criterion not met"
- compound: "COc1cc(NC(C(=O)c2c[nH]c3cc4c(cc23)CCO4)c2ccc(F)cc2OC)cc(OCCO)c1 (single isomer, unassigned)"
  answer label: "Criterion not met"
- compound: "COc1cc(NC(C(=O)c2c[nH]c3cc4c(cc23)CCO4)c2ccc(Cl)cc2OC)cc(OCCO)c1 (single isomer, unassigned) [Compound 10B]"
  answer label: "Criterion not met"
- compound: "COc1cc(NC(C(=O)c2c[nH]c3cc(OC(F)(F)F)c(C)cc23)c2ccc(F)cc2OC)cc(OCCO)c1 (single isomer, unassigned)"
  answer label: "Criterion met"
- compound: "[2H]C(Nc1cc(OC)cc(OCCO)c1)(C(=O)c1c[nH]c2cc(OC)c(C)cc12)c1ccc(Cl)cc1OC (single isomer, unassigned) [Compound 14A-D]"
  answer label: "Criterion not met"
- compound: "COc1cc(NC(C(=O)c2c[nH]c3ccc(C)cc23)c2ccc(F)cc2OC)cc(OCCO)c1 (single isomer, unassigned)"
  answer label: "Criterion not met"
- compound: "COc1cc(NC(C(=O)c2c[nH]c3cc(F)c(C)cc23)c2ccc(Cl)cc2OC)cc(OCCO)c1 (single isomer, unassigned)"
  answer label: "Criterion not met"

====

System: DENV-1 strain TC974#666
Test: Tetravalent RT-qPCR assay, serotype 1
Assay type: cell-based, Dengue virus
Conditions: Dengue virus, DENV1, Vero, 72 h, RT-qPCR serotype 1 TC974#666, Protocol A, Vero cells, day 3; read-out: EC50
Method: The antiviral activity of the compounds of the invention was tested against DENV-1 strain TC974#666 (NCPV), DENV-2 strain 16681, DENV-3 strain H87 (NCPV) and DENV-4 strain H241 (NCPV) in a RT-qPCR assay. Therefore, Vero cells were infected with either DENV-1, or -2, or -3, or -4 in the presence or absence of test compounds. […] In addition, CC50 values are determined based on the Cp values acquired for the housekeeping gene β-actin. […]
Consider the cut-off 7 nM. If the recorded EC50 is strictly smaller, the label is Fulfilled; if not, the label is Not fulfilled.

- molecule: "COc1cc(NC(C(=O)c2c[nH]c3c(C)cc(Cl)cc23)c2ccc(F)cc2OC)cc(OCCO)c1 (single isomer, unassigned)"
  answer label: "Fulfilled"
- molecule: "COc1cc(NC(C(=O)c2c[nH]c3c4c(ccc23)OCC4)c2ccc(Cl)cc2OC)cc(OCCO)c1 (single isomer, unassigned) [Compound 11A]"
  answer label: "Not fulfilled"
- molecule: "COc1cc(NC(C(=O)c2c[nH]c3cc4c(cc23)CCO4)c2ccc(Cl)cc2OC)cc(OCCO)c1 (single isomer, unassigned) [Compound 10B]"
  answer label: "Fulfilled"
- molecule: "COc1cc(NC(C(=O)c2c[nH]c3cc4c(cc23)CCO4)c2ccc(F)cc2OC)cc(OCCO)c1 (single isomer, unassigned)"
  answer label: "Not fulfilled"
- molecule: "COc1cc(NC(C(=O)c2c[nH]c3cc(OC)c(Cl)cc23)c2ccc(F)cc2OC)cc(OCCO)c1 (single isomer, unassigned)"
  answer label: "Not fulfilled"

====

Listed here: items and their measured CC50 at 3 days.
Experiment: in vitro
Assay type: cell-based
Conditions: African green monkey, CC50
assay metric: CC50 at 3 days (nM)

- compound: "COc1cc(NC(C(=O)c2c[nH]c3cc(OC(F)(F)F)c(C)cc23)c2ccc(F)cc2OC)cc(OCCO)c1 (single isomer, unassigned)"
  relation operator: "="
  readout number: 3800
- compound: "COc1cc(NC(C(=O)c2c[nH]c3cc(OC)c(Cl)cc23)c2ccc(F)cc2OC)cc(OCCO)c1 (single isomer, unassigned)"
  relation operator: "="
  readout number: 2900
- compound: "[2H]C(Nc1cc(OC)cc(OCCO)c1)(C(=O)c1c[nH]c2cc(OC)c(C)cc12)c1ccc(Cl)cc1OC (single isomer, unassigned) [Compound 14A-D]"
  relation operator: ">"
  readout number: 2300
- compound: "COc1cc(NC(C(=O)c2c[nH]c3cc(F)c(C)cc23)c2ccc(Cl)cc2OC)cc(OCCO)c1 (single isomer, unassigned)"
  relation operator: "="
  readout number: 3000
- compound: "COc1cc(NC(C(=O)c2c[nH]c3cc(OC)c(C)c(F)c23)c2ccc(Cl)cc2OC)cc(OCCO)c1 (single isomer, unassigned) [Compound 12B]"
  relation operator: ">"
  readout number: 2200
- compound: "COc1cc(NC(C(=O)c2c[nH]c3ccc(C)cc23)c2ccc(F)cc2OC)cc(OCCO)c1 (single isomer, unassigned)"
  relation operator: "="
  readout number: 10000
- compound: "COc1cc(NC(C(=O)c2c[nH]c3c(C)cc(Cl)cc23)c2ccc(F)cc2OC)cc(OCCO)c1 (single isomer, unassigned)"
  relation operator: "="
  readout number: 2900

====

System: Vero cells
Assay: in vitro
Type: cell-based
Conditions: African green monkey, 3 days
assay metric: CC50

- compound: "COc1cc(NC(C(=O)c2c[nH]c3cc(OC)c(C)c(F)c23)c2ccc(Cl)cc2OC)cc(OCCO)c1 (single isomer, unassigned) [Compound 12B]"
  subject of test: "Vero cells"
  result: "> 2500 nM"

====

System: Vero cells
Conditions: African green monkey
Listed here: items and their measured CC50.

- compound: "COc1cc(NC(C(=O)c2c[nH]c3c(C)cc(Cl)cc23)c2ccc(F)cc2OC)cc(OCCO)c1 (single isomer, unassigned) [Compound 1B]"
  subject of test: "Vero cells"
  unit of measurement: "µM"
  CC50: 11
- compound: "COc1cc(NC(C(=O)c2c[nH]c3c4c(ccc23)OCC4)c2ccc(F)cc2OC)cc(OCCO)c1 (single isomer, unassigned)"
  subject of test: "Vero cells"
  unit of measurement: "µM"
  CC50: 12
- compound: "COc1cc(NC(C(=O)c2c[nH]c3c(C)cc(Cl)cc23)c2ccc(F)cc2OC)cc(OCCO)c1 (single isomer, unassigned) [Compound 1A]"
  subject of test: "Vero cells"
  unit of measurement: "µM"
  CC50: 3.6
- compound: "COc1cc(NC(C(=O)c2c[nH]c3cc(F)ccc23)c2ccc(Cl)cc2OC)cc(OCCOP(=O)(O)O)c1 (single isomer, unassigned) [Compound 13B-P]"
  subject of test: "Vero cells"
  unit of measurement: "µM"
  CC50: 11
- compound: "COc1cc(NC(C(=O)c2c[nH]c3cc4c(cc23)CCO4)c2ccc(Cl)cc2OC)cc(OCCO)c1 (single isomer, unassigned) [Compound 10B]"
  subject of test: "Vero cells"
  unit of measurement: "µM"
  CC50: 9.5
- compound: "COc1cc(NC(C(=O)c2c[nH]c3cc4c(cc23)CCO4)c2ccc(F)cc2OC)cc(OCCO)c1 (single isomer, unassigned)"
  subject of test: "Vero cells"
  unit of measurement: "µM"
  CC50: 12

====

Assay: in vitro
Conditions: African green monkey
Listed here: items and their measured CC50.

- compound: "COc1cc(NC(C(=O)c2c[nH]c3c4c(ccc23)OCC4)c2ccc(Cl)cc2OC)cc(OCCO)c1 (single isomer, unassigned) [Compound 11A]"
  CC50: "6 µM"
- compound: "CCOc1cc2[nH]cc(C(=O)C(Nc3cc(OC)cc(OCCO)c3)c3ccc(F)cc3OC)c2cc1C (racemic)"
  CC50: "5.7 µM"
- compound: "COc1cc(NC(C(=O)c2c[nH]c3cc(F)c(C)cc23)c2ccc(F)cc2OC)cc(OCCO)c1 (racemic)"
  CC50: "4 µM"
- compound: "COc1cc(NC(C(=O)c2c[nH]c3ccc(C)cc23)c2ccc(F)cc2OC)cc(OCCO)c1 (single isomer, unassigned) [Compound 5A]"
  CC50: "5.8 µM"
- compound: "COc1cc(NC(C(=O)c2c[nH]c3cc(OC(F)(F)F)c(C)cc23)c2ccc(F)cc2OC)cc(OCCO)c1 (single isomer, unassigned) [Compound 4A]"
  CC50: "3.4 µM"
- compound: "COc1cc(NC(C(=O)c2c[nH]c3cc(F)ccc23)c2ccc(Cl)cc2OC)cc(OCCOP(=O)(O)O)c1 (racemic) [Compound 13-P]"
  CC50: "11 µM"
